growth values, listed per item
Tested on: OVCAR-5 ovarian
Assay Notes: NCI-60 one-dose screen, 48 h (100 = growth as untreated, 0 = no growth, -100 = all killed)
Experimental Conditions: 10 µM unless noted
The panel holds about 83,000 compounds, 20% with a hit somewhere; the sample as a whole holds those more often.
Recorded Endpoint: growth (%)

>>> df
                                   molecule  recorded_endpoint  numeric_value
0  Cc1c(C(=O)OCCCCOC(=O)c2c(C)n(C)c3scc[n+]23)[n+]2ccsc2n1C             growth           83.5
1  FC(F)(F)Sc1ccc(/C=C/c2cc(/C=C/c3ccc(SC(F)(F)F)cc3)n(-c3ccccc3)n2)cc1             growth            110
2  CCOC(=O)c1nnn(Cc2cc(=O)oc3c2ccc2ccccc23)c1C             growth            102
3         Nc1nc(Nc2cccnc2)sc1C(=O)c1ccccc1F             growth           26.2
4  COc1ccc(-c2nnc3n(C)c(=O)c4ccccc4n23)cc1O             growth             66
5  COc1ccc(/C=N\Nc2nc(SCC(C)C)nc(-c3ccc(OC)cc3)c2C#N)cc1             growth           55.5
6  Nc1ncc(-c2ccc3ncnc(N4CCc5ccc(Cl)cc54)c3c2)cc1C(F)(F)F             growth           12.2
7   Cc1nc(-n2[nH]c(=O)ccc2=O)sc1N=Nc1ccccc1             growth            100
8  O=C1OCC2=C1C(c1cccc(C(F)(F)F)c1)c1cc3c(cc1N2CCO)CCC3 (stereo not given)             growth           36.1
9  Cn1c(=O)c2c(nc(Nc3cc(=O)[nH]c(=O)[nH]3)n2Cc2ccccc2)n(C)c1=O             growth           96.9

---

Test system: BT-549 breast
Assay Notes: NCI-60 one-dose screen, 48 h
Experimental Conditions: 10 µM unless noted
This is part of a sample that, as a whole, favours compounds with a hit. Of some 83,000 tested, about 20% had one in any assay. The source made the active and inactive calls. How the source made its calls: active means growth percent below 10; inactive means the rest.
Possible outcomes: YES for active, NO for inactive

Compound	Qualitative Label
Cc1nc2cccc(NCCCCC(=O)NO)c2c(=O)n1-c1ccccc1	NO
CC(C)(C)CC(N)=O	NO
NC(N)=NC(N)=NCCCc1ccco1	NO
CCCCC1=C(Br)C(=O)c2nc(C)ccc2C1=O	NO
O=C(/C=C\c1ccc(Cl)c(Cl)c1)c1ccccc1	NO
CCCCSc1ccc2nc(-c3ccc(OCCCN=C(N)N)cc3)cn2c1	NO
C#CCn1cnc2cnc(Nc3cccc(NC(=O)CCl)c3)nc21	YES
COc1ccc(-c2csc(NC(=O)CN3CCN(CCO)CC3)n2)cc1NS(=O)(=O)c1cccc2c(N(C)C)cccc12	NO
C#CCOCC1CN(C)C(=O)O1 (stereo not drawn)	NO
C#Cc1cc(C(=O)Nc2ccc(CN3CCN(C)CC3)c(C(F)(F)F)c2)ccc1C	NO
N#CC1=C(N)Oc2c(sc3c(Br)cccc23)C1c1ccccn1 (stereo not drawn)	NO
COc1nc(=O)n(C2C=CC(=O)O2)cc1F (stereo not drawn)	NO
COc1ccc(/C=C/C(=O)c2cc3c(N)c(C(=O)Nc4ccccc4)sc3nc2C)cc1	YES
Nc1ncc(-c2ccc3ncnc(N4CCc5ccc(Cl)cc54)c3c2)cc1C(F)(F)F	YES
COc1ccc(C/C(C)=C(/c2ccc(OCCN3CCCC3)cc2)c2ccc(OC(=O)NCc3ccccc3)cc2)cc1	NO
C[C@@H]1O[C@@H](O[C@H]2[C@@H](OC(=O)[C@]34CCC(C)(C)C[C@H]3C3=CC[C@@H]5[C@@]6(C)C[C@H](O)[C@H](O[C@@H]7O[C@H](CO)[C@@H](O)[C@H](O)[C@H]7O)[C@@](C)(CO)[C@@H]6CC[C@@]5(C)[C@]3(C)C[C@H]4O)OC[C@@H](O)[C@@H]2O)[C@H](O)[C@H](O[C@@H]2OC[C@@H](O)[C@H](O[C@@H]3OC[C@](O)(CO)[C@H]3O[C@@H]3OC[C@@H](O)[C@H](O)[C@H]3O)[C@H]2O)[C@H]1O[C@@H]1OC[C@](O)(CO)[C@H]1O	NO
COc1cc(/C=C2\CCC/C(=C\c3cc(CN4CCCC4)c(O)c(OC)c3)C2=O)cc(CN2CCCC2)c1O	NO
CC(=O)N1N=C(c2ccc(Nc3nc(Nc4ccc(F)cc4)nc(Nc4ccc(F)cc4)n3)cc2)CC1c1ccccc1 (stereo not drawn)	NO

---

Tested on: NCI-H226 lung
Assay Notes: NCI-60 one-dose screen, 48 h (100 = growth as untreated, 0 = no growth, -100 = all killed)
Experimental Conditions: 10 µM unless noted
This is part of a sample that, as a whole, favours compounds with a hit. Of some 83,000 tested, about 20% had one in any assay.
Rule: growth below 80% gives criterion met. Equal to or above 80% gives criterion not met.

>>> df
                                    compound  qualitative_label
 0  COc1cc(C(=O)c2ccccc2C(=O)O)c(OC)c2c1CCCC2  criterion not met
 1  CCN(CC)CC#CCOC(=O)[C@]1(C)CCC[C@]2(C)c3ccc(C(C)C)cc3CC[C@@H]12  criterion not met
 2       O=C(Nc1ccc2ccccc2c1)c1cc2ccccc2cc1O  criterion not met
 3            CCNC(=S)n1nc(SC)c(C(=O)OCC)c1N  criterion not met
 4               O=c1c2c([nH]c3ccccc13)CCCC2  criterion not met
 5  Cc1cccc(Cc2cnc(NC(=O)CCCOc3ccc(Cl)cc3)s2)c1      criterion met
 6  Cn1c(=O)c2c(nc(Nc3cc(=O)[nH]c(=O)[nH]3)n2Cc2ccccc2)n(C)c1=O  criterion not met
 7  COC(=O)[C@H]1Cc2c([nH]c3ccccc23)[C@@H](c2cccs2)N1  criterion not met
 8                  O=C(CCl)n1nnnc1Cc1ccccc1  criterion not met
 9  CCn1cc(C(=O)NN=C2CCCC2)c(=O)c2ccc(C)nc21  criterion not met
10  O=C1/C(=C/c2ccc(-c3cccc(C(F)(F)F)c3)o2)SC(=S)N1CCc1ccc(O)cc1  criterion not met
11         COc1ccccc1/C=C1\COc2ccc(O)cc2C1=O  criterion not met
12  COc1ccc(S(=O)(=O)Nc2cc(Sc3cccc4cccnc34)c(O)c3ccccc23)cc1      criterion met
13  COc1ccc(/C=N\Nc2nc(SCC(C)C)nc(-c3ccc(OC)cc3)c2C#N)cc1      criterion met
14  COc1cc(-c2nc(SCCC(C)C)nc(Nc3ccc(F)cc3)c2C#N)cc(OC)c1OC  criterion not met
15  COc1ccc2c(O)c(/C=C3\N=Nc4nc(C)ccc43)oc2c1CC1CCNCC1      criterion met
16  N#CC(Cc1cccc2ccccc12)c1cc2ccccc2[nH]1 (stereo unspecified)  criterion not met
17  Cc1ccc(C(=O)Nc2ccc(CN3CCN(C)CC3)c(C(F)(F)F)c2)cc1C#Cc1cnc(N)cc1C#N      criterion met
18  CCOC(=O)c1c(-c2ccc(C)cc2)c(C#N)c(=O)n(-c2cccc(C(F)(F)F)c2)c1N  criterion not met
19                 O=C(NNc1ccccc1)c1ncc[nH]1      criterion met

---

Tested on: SW-620 colon
Assay Notes: NCI-60 one-dose screen, 48 h
Experimental Conditions: 10 µM unless noted
About 83,000 compounds went through this panel and 20% of them were active in at least one assay; those are over-represented in the sample as a whole. Active and inactive are the calls of the source. Rule for the calls: active = growth percent below 10; inactive = the rest.
Classes used: 1.0 (active), 0.0 (inactive)

>>> df
                                   compound  qualitative_label
0  CN1CCN(c2ccc(/C=C/C(=O)c3ccc(O)cc3)cc2)CC1                0.0
1      Nc1[nH]nc(Nc2ccccc2)c1-c1nc2ccccc2s1                0.0
2  N#CC(Cc1cccc2ccccc12)c1cc2ccccc2[nH]1 (stereo not given)                0.0
3  CCCCSc1ccc2nc(-c3ccc(OCCCN=C(N)N)cc3)cn2c1                0.0
4  Cc1nc2sc(C(=O)Nc3cccc4ccccc34)c(N)c2cc1C(=O)/C=C/c1ccccc1                1.0
5  CON1CCC[C@]2(C)[C@H]3CC[C@@H]4[C@H]5[C@@H](O)C(C)(C)CC[C@]5(CO)CC[C@@]4(C)[C@]3(C)CC[C@H]2C1(C)C                0.0
6  COC(=O)c1nc(-c2ccc(C)cc2)oc1Sc1ccc(C)cc1                0.0
7  Cc1ccc(-c2nc3nc(-c4ccccc4)nc(N4CCCNCC4)c3o2)cc1                1.0
8  Cc1ccc(-c2nc3nc(-c4ccccc4)nc(N4CCN(S(=O)(=O)c5ccccc5)CC4)c3o2)cc1                0.0
9             O=C(NNC(=S)Nc1ccccc1)c1ccncc1                0.0
